readout-label: logP
Give the value as a plain number.

Q: Recorded logP of "CC(C)c1ccc(CO)cc1" , please.
Ans: 2.49

---

Positions of bridges follow the written chain, without caps; N, C: chain ends. Residues, ends and D or L forms follow the SMILES beside them.
readout-label: logP
Give the value as a plain number.

Q: Recorded logP of CC[C@H](C)[C@@H]1NC(=O)[C@H](Cc2ccc(O)cc2)NC(=O)[C@@H](N)CSSC[C@@H](C(=O)N2CCC[C@H]2C(=O)N[C@@H](CCCN=C(N)N)C(=O)NCC(N)=O)NC(=O)[C@H](CC(N)=O)NC(=O)[C@H](CCC(N)=O)NC1=O (H-CYIQNCPRG-NH2; disulfide 1-6) , please.
Ans: -1.62
